# ASSAY_COMMENT: first-order primary biodegradation rate constant k (sorption-corrected, fDis-corrected) (d-1); higher = faster biodegradation
# CONDITION: river segment: Spain (ES) L_Contam; incubation temperature 24 °C
REPORTED_ENDPOINT: first-order primary biodegradation rate constant k
No unit in the answer, please; the number alone is enough.

Would you please look over these solved cases?
{"COMPOUND": "Cc1ccc2n[nH]nc2c1", "REPORTED_MEASUREMENT": 0.219}
{"COMPOUND": "CCOc1ccccc1OCCN[C@H](C)Cc1ccc(OC)c(S(N)(=O)=O)c1", "REPORTED_MEASUREMENT": 0.41}
{"COMPOUND": "CN(C)C(=O)Nc1ccc(Cl)c(Cl)c1", "REPORTED_MEASUREMENT": 0.0944}

-- ask # return recorded first-order primary biodegradation rate constant k for input Cc1cc(O)cc(C)c1Cl
-- reply 4.19

-- ask # return recorded first-order primary biodegradation rate constant k for input COc1ccc(NC(=O)N(C)C)cc1Cl
-- reply 0.0285

-- ask # return recorded first-order primary biodegradation rate constant k for input c1ccc([C@H]2CN3CCSC3=N2)cc1
-- reply 0.0585

-- ask # return recorded first-order primary biodegradation rate constant k for input CCOC(=O)C1CC(=O)C(=C(O)C2CC2)C(=O)C1 (stereo not given)
-- reply 0.373

-- ask # return recorded first-order primary biodegradation rate constant k for input CCCCC1=NC2(CCCC2)C(=O)N1Cc1ccc(-c2ccccc2-c2nnn[nH]2)cc1
-- reply 0.426

-- ask # return recorded first-order primary biodegradation rate constant k for input COCC(C)N(C(=O)CCl)c1c(C)csc1C (stereo not given)
-- reply 0.0244

-- ask # return recorded first-order primary biodegradation rate constant k for input Cc1ccc(NC(=O)N(C)C)cc1Cl
-- reply 0.114

All values here come from the supplement of paper PMC11562712.
